# Tested on: SK-MEL-28 melanoma
# test_summary: NCI tumour cell line growth inhibition, 48 h
experimental_readout: TGI

compound	TGI
Cc1ccccc1C1CC(=O)CC(c2ccccc2C)C12C(=O)NC(=O)NC2=O (stereo not given)	> 100 µM
C/C=C(C)/C=C/CC(C)CCC=C(C)C (stereo not given)	> 100 µM

Reported TGI of `O=C(O)CN1CCNCCN(CP(=O)(O)O)CC1` : > 100 µM

Given item `CC(C)(C)NCc1cc(Nc2ccnc3cc(Cl)ccc23)cc(-c2ccc(Cl)cc2)c1O` , the value recorded as its TGI is 3.26 µM

Sure, the documented TGI for CCCCON1C[C@@H](O)C(O)[C@@H](O)C1 (stereo not given in full) is > 100 µM

Quick note, TGI for `COc1ccc2c(c1)c(-c1ccc(-c3cn(S(=O)(=O)c4ccccc4)c4ccc(OC)cc34)s1)cn2S(=O)(=O)c1ccccc1` landed at > 100 µM

For this compound ( `CC(=N/NC(=S)N1CCCCC1)/C(=N\NC(=S)N1CCCCC1)c1ccccc1` ), measured TGI is 3.94 µM

The measured TGI associated with `Cn1cncc1[C@@](N)(c1ccc(Cl)cc1)c1ccc2c(c1)c(-c1cccc(Cl)c1)cc(=O)n2C` reads 14.7 µM

# TGI (compound: `O=C(/C=C(\O)c1ccc(Cl)cc1)C(=O)N=Nc1c(O)[nH]c2ccc(Br)cc12` ) is > 100 µM

The compound listed as `COc1cc2nc(-c3cnc(N(C)C)nc3)nc(NC3CCN(Cc4ccccc4)CC3)c2cc1OC` has a reported TGI of 3.58 µM

----------
# System: CAKI-1 renal
# test_summary: NCI tumour cell line growth inhibition, 48 h
Listed below: log10 of TGI values for each entry.
Friendly reminder: values = log10 of TGI, unit µM.

# annotated cases, reported log10 of TGI shown
compound	system	experimental_readout	reported
O=C1/C(=C\c2ccc(Cl)cc2Cl)Sc2scc(-c3cccc([N+](=O)[O-])c3)[n+]21	CAKI-1 renal	log10 of TGI	0.91
O=[N+]([O-])C(Cl)C(Cl)C(Cl)=C(Cl)Cl (stereo not given)	CAKI-1 renal	log10 of TGI	1.52
COc1cc(O)c2c(O)c3c(c4c2c1[C@]1(C4)C(C)=CCCC1(C)C)[C@H](O)[C@@]1(O)CC(=O)C(C(N)=O)=C(O)[C@@]1(O)C3=O	CAKI-1 renal	log10 of TGI	-0.01
CC(C)(C)NC(C1=CC(C)(C)c2ccccc2C1=O)c1ccccc1 (stereo not given)	CAKI-1 renal	log10 of TGI	1.13
Cn1cncc1[C@@](N)(c1ccc(Cl)cc1)c1ccc2c(c1)c(-c1cccc(Cl)c1)cc(=O)n2C	CAKI-1 renal	log10 of TGI	1.17

Briefly, log10 of TGI measured for COC1=C2CC(C)CC(OC)[C@@H](OC(=O)CCN)[C@H](C)/C=C(\C)C(OC(N)=O)C(OC)/C=C\C=C(/C)C(=O)NC(=CC1=O)C2=O (stereo not given in full) : 1.25

Consider `O=c1c2cccc(Cl)c2sc2c(NCCCNCCO)nc3ccccc3c12` . Its measured log10 of TGI is 1.25

response.value for `N#C/C(=C\c1ccc(-c2ccc(Cl)cc2)o1)C(=O)Nc1ncc(Cc2ccc(Cl)cc2)s1` (field: log10 of TGI) = 0.54
